Quick list: Top per entry.
- EXPERIMENTAL TARGET: T1, cynomolgus monkey GPRC5D (cynomolgus monkey)
- T1 construct: whole, on cells; HEK293T-cynoGPRC5D cells; also called cynoGPRC5D
- METHOD SUMMARY: FACS, HEK293T-cynoGPRC5D cells
# print the numeric value only

Some solved entries appear below for comparison.
| BINDER | Top |
| --- | --- |
| ch87A3G8 (antibody, V domains shown) VH: QVQLKESGPGLVAPSQSLSITCTVSGFSLSSYSVYWVRQPPGKGLEWLGVIWAGGSTNYNSALMSRLSINKDKSKSQVFLKMNSLQTDDSAIYYCAMRWLPRGLDFWGQGTSVTVSS VL: DIVMTQSHKFMSTSVGDRVSITCKASQDVGTAVAWYQQKPGQSPKLLIYWASTRHTGVPDRFTGSGSGTDFTLTISNVQSEDLADYFCQQYSTYYTFGGGTKLEIK | 42200 |
| ch15D6G2 (antibody, V domains shown) VH: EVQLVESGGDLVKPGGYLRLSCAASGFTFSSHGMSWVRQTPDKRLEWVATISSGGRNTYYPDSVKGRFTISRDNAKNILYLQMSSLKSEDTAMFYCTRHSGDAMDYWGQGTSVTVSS VL: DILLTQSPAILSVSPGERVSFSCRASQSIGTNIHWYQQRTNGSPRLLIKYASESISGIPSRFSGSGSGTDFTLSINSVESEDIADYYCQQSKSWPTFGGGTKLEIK | 123000 |

Pending binder:
Query: Field request: Top | item: ATG596 (antibody, V domains shown, Human IgG1; also called benchmark antibody ATG596; positive human IgG1 control antibody) VH: QVQLVQSGAEVKKPGASVKVSCKASGYSFTGYTMNWVRQAPGQGLEWMGLINPYNSDTNYAQKLQGRVTMTTDTSTSTAYMELRSLRSDDTAVYYCARVALRVALDYWGQGTLVTVSS VL: DIQMTQSPSSLSASVGDRVTITCKASQNVATHVGWYQQKPGKAPKRLIYSASYRYSGVPSRFSGSGSGTEFTLTISNLQPEDFATYYCQQYNRYPYTFGQGTKLEIK
Response: 22500
